Listed molecules paired with reported TGI
System: SNB-19 CNS
test_details: NCI tumour cell line growth inhibition, 48 h

# molecule, TGI
rows = [
    ("CC(C)(C)OC(=O)NC(Cc1ccc(OCc2ccccc2)cc1)C(=O)NC(COCc1ccccc1)C(=O)Oc1c(Cl)c(Cl)c(Cl)c(Cl)c1Cl (stereo not drawn)", "> 100 µM"),
    ("CCCCN(CCCC)CC(O)c1cc(-c2ccc(Cl)c(Cl)c2)nc2c(Cl)cc(Cl)cc12 (stereo not drawn)", "> 100 µM"),
    ("CCCCCNC(=O)c1cc2cc(CCl)ccc2oc1=O", "> 69 µM"),
    ("CC12OC(CC(O)C1O)n1c3ccccc3c3c4c(c5c6ccccc6n2c5c31)C(=O)N(CCN1CCCC1)C4=O (stereo not drawn)", "9.29 µM"),
    ("O=C(Nc1ccc(F)cc1)C(=O)C(C(=O)c1ccccc1F)C1OC(=O)c2ccccc21 (stereo not drawn)", "> 100 µM"),
    ("CN(C)C(=S)/N=C1\\SC(=Nc2ccccc2)C(=Nc2ccccc2)N1c1ccc([N+](=O)[O-])cc1", "> 100 µM"),
    ("[N-]=[N+]=NC1=C(C(=O)c2ccccc2)C(=O)c2cccc3cccc1c23", "> 100 µM"),
    ("CCOC(=O)c1nnsc1NC(=O)NCCCCCCn1c(=O)n(CCCCCCNC(=O)Nc2snnc2C(=O)OCC)c(=O)n(CCCCCCNC(=O)Nc2snnc2C(=O)OCC)c1=O", "38.2 µM"),
]
